System: HO-1-u-1 (Oral Cavity Carcinoma)
Assay: Bliss excess, mean over the matrix (fraction); higher = more synergy;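 also: after 72 h of two-drug dosing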
Please provide measured Bliss excess for the entries that follow.

Some entries whose results are on file:
* COc1cccc(OCCCN)c1-c1cc(Nc2cnc(C#N)cn2)n[nH]1 [Prexasertib] + CCc1c2c(nc3ccc(O)cc13)-c1cc3c(c(=O)n1C2)COC(=O)[C@]3(O)CC [SN-38] (first compound max 1 µM, 7x7, partner max 0.3 µM) | 0.0348
* CC1(C)CCC(CN2CCN(c3ccc(C(=O)NS(=O)(=O)c4ccc(NCC5CCOCC5)c([N+](=O)[O-])c4)c(Oc4cnc5[nH]ccc5c4)c3)CC2)=C(c2ccc(Cl)cc2)C1 [Venetoclax] + C1CN(CCC1(C(=O)N[C@@H](CCO)C2=CC=C(C=C2)Cl)N)C3=NC=NC4=C3C=CN4 [Capivasertib] (first compound max 1 µM, 7x7, partner max 3 µM) | -0.052
* CC(=O)Nc1cccc(-n2c(=O)n(C3CC3)c(=O)c3c(Nc4ccc(I)cc4F)n(C)c(=O)c(C)c32)c1 [Trametinib] + Cc1nc(-c2cn3c(n2)-c2ccc(-c4cnn(C(C)(C)C(N)=O)c4)cc2OCC3)n(C(C)C)n1 [Taselisib] (first compound max 1 µM, 7x7, partner max 10 µM) | 0.0754
* CCN(CCO)CCCOc1ccc2c(Nc3cc(CC(=O)Nc4cccc(F)c4)[nH]n3)ncnc2c1 [AZD2811] + O=C(c1cc(Cc2n[nH]c(=O)c3ccccc23)ccc1F)N1CCN(C(=O)C2CC2)CC1 [Olaparib] (first compound max 1 µM, 7x7, partner max 10 µM) | 0.0288
* N#Cc1cnc(Nc2cc(NC[C@H]3CNCCO3)c(C(F)(F)F)cn2)cn1 [SRA737] + CCc1c2c(nc3ccc(O)cc13)-c1cc3c(c(=O)n1C2)COC(=O)[C@]3(O)CC [SN-38] (first compound max 10 µM, 7x7, partner max 0.3 µM) | 0.106

State recorded Bliss excess for all listed compounds.
1. C[C@@H](Oc1cc(-c2cnn(C3CCNCC3)c2)cnc1N)c1c(Cl)ccc(F)c1Cl [Crizotinib] + CC1=C(C(=CC=C1)Cl)NC(=O)C2=CN=C(S2)NC3=CC(=NC(=N3)C)N4CCN(CC4)CCO [Dasatinib] (first compound max 10 µM, 7x7, partner max 2 µM)
2. CC1(C)CCC(CN2CCN(c3ccc(C(=O)NS(=O)(=O)c4ccc(NCC5CCOCC5)c([N+](=O)[O-])c4)c(Oc4cnc5[nH]ccc5c4)c3)CC2)=C(c2ccc(Cl)cc2)C1 [Venetoclax] + COc1cc(Nc2ncc3c(n2)-c2ccc(Cl)cc2C(c2c(F)cccc2OC)=NC3)ccc1C(=O)O [Alisertib] (first compound max 1 µM, 7x7, partner max 10 µM)

1. -0.0488
2. 0.0246

---

Test system: LB771-HNC (Head and Neck Carcinoma)
Experiment: Bliss excess, mean over the matrix (fraction); higher = more synergy
Quick rule for you: Bliss excess at -0.02 or higher means yes (1), lower means no (0).

# example entries with known answers
* CN(CCO)CC[C@H](CSc1ccccc1)Nc1ccc(S(=O)(=O)NC(=O)c2ccc(N3CCC([C@@H](O)c4ccccc4-c4ccc(Cl)cc4)CC3)cc2)cc1S(=O)(=O)C(F)(F)F [AZD4320] + C[C@@H]1COCCN1C2=NC(=NC(=C2)C3(CC3)[S@](=N)(=O)C)C4=C5C=CNC5=NC=C4 [AZD6738] (first compound max 1 µM, 7x7, partner max 10 µM) | yes (1)
* CCc1c2c(nc3ccc(O)cc13)-c1cc3c(c(=O)n1C2)COC(=O)[C@]3(O)CC [SN-38] + O=C(c1cc(Cc2n[nH]c(=O)c3ccccc23)ccc1F)N1CCN(C(=O)C2CC2)CC1 [Olaparib] (first compound max 0.3 µM, 7x7, partner max 10 µM) | yes (1)

Does Bliss excess meet or surpass -0.02 for C=CCn1c(=O)c2cnc(Nc3ccc(N4CCN(C)CC4)cc3)nc2n1-c1cccc(C(C)(C)O)n1 [AZD1775] + C1CN(CCC1(C(=O)N[C@@H](CCO)C2=CC=C(C=C2)Cl)N)C3=NC=NC4=C3C=CN4 [Capivasertib] (first compound max 3 µM, partner max 3 µM) ?
no (0)

Record CN(CCO)CC[C@H](CSc1ccccc1)Nc1ccc(S(=O)(=O)NC(=O)c2ccc(N3CCC([C@@H](O)c4ccccc4-c4ccc(Cl)cc4)CC3)cc2)cc1S(=O)(=O)C(F)(F)F [AZD4320] + C1CN(CCC1(C(=O)N[C@@H](CCO)C2=CC=C(C=C2)Cl)N)C3=NC=NC4=C3C=CN4 [Capivasertib] (first compound max 1 µM, 7x7, partner max 3 µM) ; criterion: Bliss excess no lower than -0.02. Met?
yes (1)

Does the reported Bliss excess for CC1(C)CCC(CN2CCN(c3ccc(C(=O)NS(=O)(=O)c4ccc(NCC5CCOCC5)c([N+](=O)[O-])c4)c(Oc4cnc5[nH]ccc5c4)c3)CC2)=C(c2ccc(Cl)cc2)C1 [Venetoclax] + C1CN(CCC1(C(=O)N[C@@H](CCO)C2=CC=C(C=C2)Cl)N)C3=NC=NC4=C3C=CN4 [Capivasertib] (first compound max 1 µM, 7x7, partner max 3 µM) fall at or above the -0.02 mark?
yes (1)

Could you verify whether the entry C[C@@H](c1ccc2nccn2c1)n1nnc2ncc(-c3cnn(C)c3)nc21 [Savolitinib] + Cc1c2c(nn1C)CSCc1cc(n(C)n1)CSc1cc(c3ccccc3c1)OCCCc1c(C(=O)O)n(C)c3c-2c(Cl)ccc13 [AZD5991] (first compound max 1 µM, 7x7, partner max 1 µM) shows Bliss excess of no less than -0.02?
no (0)

---

Tested on: RH-18 (Rhabdomyosarcoma)
Assay: Bliss excess, mean over the matrix (fraction); higher = more synergy
measure: Bliss excess
Give bare numbers.

* CCN(CCO)CCCOc1ccc2c(Nc3cc(CC(=O)Nc4cccc(F)c4)[nH]n3)ncnc2c1 [AZD2811] + C[C@@H]1COCCN1C2=NC(=NC(=C2)C3(CC3)[S@](=N)(=O)C)C4=C5C=CNC5=NC=C4 [AZD6738] (first compound max 1 µM, 7x7, partner max 10 µM) | -0.0336
* C=CCn1c(=O)c2cnc(Nc3ccc(N4CCN(C)CC4)cc3)nc2n1-c1cccc(C(C)(C)O)n1 [AZD1775] + C[C@@H]1COCCN1C2=NC(=NC(=C2)C3(CC3)[S@](=N)(=O)C)C4=C5C=CNC5=NC=C4 [AZD6738] (first compound max 1 µM, partner max 10 µM) | -0.0014
* COc1cccc2c1C(=O)c1c(O)c3c(c(O)c1C2=O)C[C@@](O)(C(=O)CO)C[C@@H]3O[C@H]1C[C@H](N)[C@H](O)[C@H](C)O1 [Doxorubicin] + Cc1cc2ncnn2cc1Nc1ncc2c(n1)n(C1CCOCC1)c(=O)n2C [AZD7648] (first compound max 1 µM, 7x7, partner max 10 µM) | 0.0463

Look up Bliss excess for the entries below, preserving their order.
1. CCN(CCO)CCCOc1ccc2c(Nc3cc(CC(=O)Nc4cccc(F)c4)[nH]n3)ncnc2c1 [AZD2811] + O=C(c1cc(Cc2n[nH]c(=O)c3ccccc23)ccc1F)N1CCN(C(=O)C2CC2)CC1 [Olaparib] (first compound max 1 µM, 7x7, partner max 10 µM)
2. COc1cccc(OCCCN)c1-c1cc(Nc2cnc(C#N)cn2)n[nH]1 [Prexasertib] + O=C(c1cc(Cc2n[nH]c(=O)c3ccccc23)ccc1F)N1CCN(C(=O)C2CC2)CC1 [Olaparib] (first compound max 1 µM, 7x7, partner max 10 µM)

[0.0097, -0.0295]

---

Provide the recorded Bliss excess for the entries that follow.
System: SIMA (Neuroblastoma)
Assay: Bliss excess, mean over the matrix (fraction); higher = more synergy
Numbers only.

The following molecules have reported results that may help.
- Cc1cc2ncnn2cc1Nc1ncc2c(n1)n(C1CCOCC1)c(=O)n2C [AZD7648] + CN(C)CCCOc1ccc(-c2ccc3ncc4c(c3c2)n(C2CCOCC2)c(=O)n4C)cn1 [AZD0156] (first compound max 10 µM, 7x7, partner max 1 µM): 0.0504
- CN(C)CCCOc1ccc(-c2ccc3ncc4c(c3c2)n(C2CCOCC2)c(=O)n4C)cn1 [AZD0156] + CCN(CCO)CCCOc1ccc2c(Nc3cc(CC(=O)Nc4cccc(F)c4)[nH]n3)ncnc2c1 [AZD2811] (first compound max 1 µM, 7x7, partner max 1 µM): -0.0085
- Cc1c2c(nn1C)CSCc1cc(n(C)n1)CSc1cc(c3ccccc3c1)OCCCc1c(C(=O)O)n(C)c3c-2c(Cl)ccc13 [AZD5991] + CN(C)CCCOc1ccc(-c2ccc3ncc4c(c3c2)n(C2CCOCC2)c(=O)n4C)cn1 [AZD0156] (first compound max 1 µM, 7x7, partner max 1 µM): 0.0197

The record that follows has no Bliss excess shown yet.
The molecule identified as Cc1c2c(nn1C)CSCc1cc(n(C)n1)CSc1cc(c3ccccc3c1)OCCCc1c(C(=O)O)n(C)c3c-2c(Cl)ccc13 [AZD5991] + C=CCn1c(=O)c2cnc(Nc3ccc(N4CCN(C)CC4)cc3)nc2n1-c1cccc(C(C)(C)O)n1 [AZD1775] (first compound max 1 µM, partner max 1 µM) registered its Bliss excess at -0.0713
